tested on: NIH 3T3 mouse fibroblast cells; assay: Mitogenic assay (mitogen-induced cell proliferation); format: cell-based; details: Mus musculus, NIH3T3, 10 μM compound
Would you kindly list inhibition at 10 µM for each of these molecules?
// units = %; emit number, no label

*Q* Provide only the value of recorded inhibition at 10 µM for COc1cccc(C(=O)N2Cc3ccccc3C(c3ccccc3)c3ccccc32)c1 (stereo not drawn)
*A* 99

*Q* Provide only the value of recorded inhibition at 10 µM for COc1ccc(C(=O)N2Cc3ccccc3C(c3ccccc3Cl)c3ccccc32)cc1 (stereo not drawn)
*A* 99

*Q* Provide only the value of recorded inhibition at 10 µM for O=C(Nc1ccccc1)N1Cc2ccccc2C(c2ccccc2Cl)c2ccccc21 (stereo not drawn)
*A* 99

###

system: NIH 3T3 mouse fibroblast cells; experiment: Mitogenic assay (mitogen-induced cell proliferation); assay type: cell-based; conditions: Mus musculus, NIH3T3, 10 μM compound
Measured parameter: inhibition at 10 µM (%)
// units = %; emit number, no label

*Q* Provide only the value of recorded inhibition at 10 µM for O=C(c1ccc(Cl)cc1)N1Cc2ccccc2C(c2ccccc2)c2ccccc21 (stereo not drawn) [Compound 13]
*A* 97

*Q* Provide only the value of recorded inhibition at 10 µM for Clc1ccccc1C1c2ccccc2CNc2ccccc21 (stereo not drawn) [Compound 3]
*A* 99

*Q* Provide only the value of recorded inhibition at 10 µM for CCOC(=O)C(=O)N1Cc2ccccc2C(c2ccccc2)c2ccccc21 (stereo not drawn) [Compound 10]
*A* 53

*Q* Provide only the value of recorded inhibition at 10 µM for COc1ccc2c(c1)CNc1ccccc1C2(c1ccccc1)c1ccc(F)cc1 (stereo not drawn) [Compound 12]
*A* 13

*Q* Provide only the value of recorded inhibition at 10 µM for Cc1ccc(C(=O)N2Cc3ccccc3C(c3ccccc3)c3ccccc32)cc1 (stereo not drawn) [Compound 22]
*A* 99

*Q* Provide only the value of recorded inhibition at 10 µM for COc1ccc(C(=O)N2Cc3ccccc3C(c3ccccc3)c3ccccc32)cc1 (stereo not drawn) [Compound 21]
*A* 93
